experimentalContext: in acetonitrile, 313.1 K
measurementName: solubility (mole fraction)

A: C=CC1=C(C(=O)O)N2C(=O)[C@@H](NC(=O)/C(=N\OCC(=O)O)c3csc(N)n3)[C@H]2SC1.O.O.O
B: Cc1c(O)c(=O)ccn1C
// query Param metric = solubility (mole fraction); output whichever of A , B has the minimum value. Respond with the label that goes with your answer.
// result A

====

experimentalContext: in acetonitrile, 283.1 K
measurementName: solubility (mole fraction)

I: Cc1c(O)c(=O)ccn1C
II: C=CC1=C(C(=O)O)N2C(=O)[C@@H](NC(=O)/C(=N\OCC(=O)O)c3csc(N)n3)[C@H]2SC1.O.O.O
// query Param metric = solubility (mole fraction); output whichever of I , II has the minimum value. Respond with the label that goes with your answer.
// result II
(II: 8.28e-05, I: 0.000187)
